molecular target: SRC (chicken); assay: radiometric filter-binding kinase assay; settings: ATP 50 µM; accession and sequence are those of the human protein
measured_quantity: IC50 (nM)
Report the figure in nM without appending any unit label.

Lookup: I'd like to know its IC50. The compound in question is CN(C)S(=O)(=O)c1ccc2c(c1)/C(=C/c1cc3c([nH]1)CCCC3)C(=O)N2
Found: 100

* * *

biological target: CSK (human) (UniProt P41240); experiment: radiometric filter-binding kinase assay; details: compound 1.0 µM; ATP 20 µM
Sequence (P41240 whole entry, looked up): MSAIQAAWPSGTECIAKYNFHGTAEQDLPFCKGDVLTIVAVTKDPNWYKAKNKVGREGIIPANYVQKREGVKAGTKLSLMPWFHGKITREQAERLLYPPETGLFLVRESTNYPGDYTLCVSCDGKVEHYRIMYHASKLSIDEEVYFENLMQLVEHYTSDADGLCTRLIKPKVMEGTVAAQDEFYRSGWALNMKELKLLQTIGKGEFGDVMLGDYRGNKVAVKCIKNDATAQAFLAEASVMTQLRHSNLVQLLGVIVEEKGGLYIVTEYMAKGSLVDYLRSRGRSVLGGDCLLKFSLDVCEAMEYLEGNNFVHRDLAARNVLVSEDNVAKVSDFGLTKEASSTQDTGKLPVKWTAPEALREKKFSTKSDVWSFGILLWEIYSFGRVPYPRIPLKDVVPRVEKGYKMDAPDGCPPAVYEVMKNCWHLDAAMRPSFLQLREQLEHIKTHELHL
measured_quantity: residual activity (%)
Report the figure in % without appending any unit label.

For orientation, consider the following solved cases.
compound | residual activity (%)
CC(C)(N)c1ccc(-c2nc3ccccc3nc2-c2ccccc2)cc1 | 87
O=S(=O)(NCCNC/C=C/c1ccc(Br)cc1)c1cccc2cnccc12 | 89
O=C1c2ccccc2-c2n[nH]c3cccc1c23 | 65
CO[C@H]1CC2CC[C@@H](C)[C@@](O)(O2)C(=O)C(=O)N2CCCC[C@H]2C(=O)OC([C@H](C)C[C@@H]2CC[C@@H](O)[C@H](OC)C2)CC(=O)[C@H](C)/C=C(\C)[C@@H](O)[C@@H](OC)C(=O)[C@H](C)C[C@H](C)/C=C/C=C/C=C/1C (stereo partly specified) | 83
COc1ccc2c(c1)=NC1=C(C)NCCC=21 | 82

Continue with the compound presented below.
Lookup: I'd like to know its residual activity. The compound in question is COC[C@H]1OC(=O)c2coc3c2[C@@]1(C)C1=C(C3=O)[C@@H]2CCC(=O)[C@@]2(C)C[C@H]1OC(C)=O
Found: 73

* * *

biological target: UniProt Q96RR4; assay: radiometric filter-binding kinase assay; settings: compound 1.0 µM; ATP 20 µM
Sequence (Q96RR4 whole entry, looked up): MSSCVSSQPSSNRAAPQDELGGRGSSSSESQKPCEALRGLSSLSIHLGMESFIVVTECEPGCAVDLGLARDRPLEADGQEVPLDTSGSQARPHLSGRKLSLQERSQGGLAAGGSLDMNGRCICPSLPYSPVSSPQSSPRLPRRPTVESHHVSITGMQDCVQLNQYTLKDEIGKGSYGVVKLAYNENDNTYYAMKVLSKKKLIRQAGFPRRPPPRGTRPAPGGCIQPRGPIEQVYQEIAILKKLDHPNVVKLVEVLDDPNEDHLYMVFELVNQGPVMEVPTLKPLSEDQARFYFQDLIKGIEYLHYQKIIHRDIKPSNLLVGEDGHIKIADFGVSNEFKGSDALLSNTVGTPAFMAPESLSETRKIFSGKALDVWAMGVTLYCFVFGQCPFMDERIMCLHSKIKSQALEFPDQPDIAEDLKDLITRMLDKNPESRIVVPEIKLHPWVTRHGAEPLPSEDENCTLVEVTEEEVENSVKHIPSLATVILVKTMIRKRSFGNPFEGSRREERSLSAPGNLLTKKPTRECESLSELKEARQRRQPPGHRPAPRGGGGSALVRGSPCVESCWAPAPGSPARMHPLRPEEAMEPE
Please use condition met whenever residual activity is not below 70%, and condition not met whenever it is.

Use these answered entries as a reference point.
molecule | label_value
CO[C@H]1CC2CC[C@@H](C)[C@@](O)(O2)C(=O)C(=O)N2CCCC[C@H]2C(=O)OC([C@H](C)C[C@@H]2CC[C@@H](O)[C@H](OC)C2)CC(=O)[C@H](C)/C=C(\C)[C@@H](O)[C@@H](OC)C(=O)[C@H](C)C[C@H](C)/C=C/C=C/C=C/1C (stereo not given in full) | condition met
O=C1c2ccccc2-c2n[nH]c3cccc1c23 | condition not met
O=S(=O)(NCCNC/C=C/c1ccc(Br)cc1)c1cccc2cnccc12 | condition met

We now examine a further molecule.
Lookup: Entry COc1ccc2c(c1)=NC1=C(C)NCCC=21 : is its residual activity no less than 70%?
Found: condition met

* * *

target: UniProt P45984; test: radiometric filter-binding kinase assay; settings: compound 1.0 µM; ATP 20 µM
Sequence (P45984 whole entry, looked up): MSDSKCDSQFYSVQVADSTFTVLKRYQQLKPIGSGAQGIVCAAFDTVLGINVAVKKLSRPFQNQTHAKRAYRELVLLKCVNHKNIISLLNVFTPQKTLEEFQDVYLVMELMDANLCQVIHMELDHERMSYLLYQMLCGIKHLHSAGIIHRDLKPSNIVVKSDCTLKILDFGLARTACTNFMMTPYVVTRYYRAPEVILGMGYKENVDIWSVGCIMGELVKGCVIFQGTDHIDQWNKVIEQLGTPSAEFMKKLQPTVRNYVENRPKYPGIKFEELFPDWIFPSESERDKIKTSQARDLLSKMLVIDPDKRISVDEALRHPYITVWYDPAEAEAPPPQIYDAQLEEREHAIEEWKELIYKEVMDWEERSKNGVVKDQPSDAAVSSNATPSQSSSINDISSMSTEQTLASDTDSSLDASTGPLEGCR
measured_quantity: residual activity
The reply must contain the numeric value and, after it, the unit.

compound | residual activity
CC(C)(N)c1ccc(-c2nc3ccccc3nc2-c2ccccc2)cc1 | 105%
COc1ccc2c(c1)=NC1=C(C)NCCC=21 | 86%
COC[C@H]1OC(=O)c2coc3c2[C@@]1(C)C1=C(C3=O)[C@@H]2CCC(=O)[C@@]2(C)C[C@H]1OC(C)=O | 83%
CO[C@H]1CC2CC[C@@H](C)[C@@](O)(O2)C(=O)C(=O)N2CCCC[C@H]2C(=O)OC([C@H](C)C[C@@H]2CC[C@@H](O)[C@H](OC)C2)CC(=O)[C@H](C)/C=C(\C)[C@@H](O)[C@@H](OC)C(=O)[C@H](C)C[C@H](C)/C=C/C=C/C=C/1C (stereo not given in full) | 81%

Continue with the compound presented below.
Lookup: I'd like to know its residual activity. The compound in question is O=C1c2ccccc2-c2n[nH]c3cccc1c23
Found: 24%

* * *

target: MAP2K1 (human); assay: radiometric filter-binding kinase assay; conditions: compound 1.0 µM; ATP 5 µM
Output Criterion met for records whose residual activity is lower than 60%, Criterion not met for records at or above 60%.

Lookup: Dear reviewer, please state whether CO[C@H]1CC2CC[C@@H](C)[C@@](O)(O2)C(=O)C(=O)N2CCCC[C@H]2C(=O)OC([C@H](C)C[C@@H]2CC[C@@H](O)[C@H](OC)C2)CC(=O)[C@H](C)/C=C(\C)[C@@H](O)[C@@H](OC)C(=O)[C@H](C)C[C@H](C)/C=C/C=C/C=C/1C (stereo not given in full) has residual activity strictly beneath 60%.
Found: Criterion not met

Lookup: Dear reviewer, please state whether COC[C@H]1OC(=O)c2coc3c2[C@@]1(C)C1=C(C3=O)[C@@H]2CCC(=O)[C@@]2(C)C[C@H]1OC(C)=O has residual activity strictly beneath 60%.
Found: Criterion not met

Lookup: Dear reviewer, please state whether O=C1c2ccccc2-c2n[nH]c3cccc1c23 has residual activity strictly beneath 60%.
Found: Criterion met

Lookup: Dear reviewer, please state whether CC(C)(N)c1ccc(-c2nc3ccccc3nc2-c2ccccc2)cc1 has residual activity strictly beneath 60%.
Found: Criterion not met

Lookup: Dear reviewer, please state whether COc1ccc2c(c1)=NC1=C(C)NCCC=21 has residual activity strictly beneath 60%.
Found: Criterion not met

* * *

biological target: BRSK2 (human); test: radiometric filter-binding kinase assay; settings: compound 1.0 µM; ATP 50 µM
measured_quantity: residual activity
The reply must contain the numeric value and, after it, the unit.

For orientation, consider the following solved cases.
compound | measured_quantity | value_observed
CC(C)(N)c1ccc(-c2nc3ccccc3nc2-c2ccccc2)cc1 | residual activity | 96%
CO[C@H]1CC2CC[C@@H](C)[C@@](O)(O2)C(=O)C(=O)N2CCCC[C@H]2C(=O)OC([C@H](C)C[C@@H]2CC[C@@H](O)[C@H](OC)C2)CC(=O)[C@H](C)/C=C(\C)[C@@H](O)[C@@H](OC)C(=O)[C@H](C)C[C@H](C)/C=C/C=C/C=C/1C (stereo partly specified) | residual activity | 90%
COC[C@H]1OC(=O)c2coc3c2[C@@]1(C)C1=C(C3=O)[C@@H]2CCC(=O)[C@@]2(C)C[C@H]1OC(C)=O | residual activity | 80%

Lookup: I'd like to know its residual activity. The compound in question is COc1ccc2c(c1)=NC1=C(C)NCCC=21
Found: 103%

Lookup: I'd like to know its residual activity. The compound in question is O=S(=O)(NCCNC/C=C/c1ccc(Br)cc1)c1cccc2cnccc12
Found: 82%

Lookup: I'd like to know its residual activity. The compound in question is O=C1c2ccccc2-c2n[nH]c3cccc1c23
Found: 44%

* * *

molecular target: PLK1 (human) (UniProt P53350); assay: radiometric filter-binding kinase assay; details: compound 1.0 µM; ATP 5 µM
Sequence (P53350 whole entry, looked up): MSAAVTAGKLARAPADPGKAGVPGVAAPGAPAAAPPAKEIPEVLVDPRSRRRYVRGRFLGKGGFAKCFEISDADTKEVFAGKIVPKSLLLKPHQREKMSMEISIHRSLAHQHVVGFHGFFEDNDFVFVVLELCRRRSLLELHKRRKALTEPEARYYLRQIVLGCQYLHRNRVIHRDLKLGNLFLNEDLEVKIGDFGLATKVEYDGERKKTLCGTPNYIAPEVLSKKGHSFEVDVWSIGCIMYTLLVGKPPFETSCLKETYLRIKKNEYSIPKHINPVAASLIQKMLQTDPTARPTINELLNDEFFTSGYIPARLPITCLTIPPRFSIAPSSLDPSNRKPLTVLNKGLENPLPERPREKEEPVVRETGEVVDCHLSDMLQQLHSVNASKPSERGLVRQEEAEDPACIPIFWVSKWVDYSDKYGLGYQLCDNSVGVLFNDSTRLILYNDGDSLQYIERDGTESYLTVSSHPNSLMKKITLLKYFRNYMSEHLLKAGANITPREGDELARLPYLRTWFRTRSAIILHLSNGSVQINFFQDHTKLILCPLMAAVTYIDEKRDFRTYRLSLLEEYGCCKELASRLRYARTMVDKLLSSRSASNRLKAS
measured_quantity: residual activity

For orientation, consider the following solved cases.
compound | residual activity
O=S(=O)(NCCNC/C=C/c1ccc(Br)cc1)c1cccc2cnccc12 | 95%
O=C1c2ccccc2-c2n[nH]c3cccc1c23 | 80%
CO[C@H]1CC2CC[C@@H](C)[C@@](O)(O2)C(=O)C(=O)N2CCCC[C@H]2C(=O)OC([C@H](C)C[C@@H]2CC[C@@H](O)[C@H](OC)C2)CC(=O)[C@H](C)/C=C(\C)[C@@H](O)[C@@H](OC)C(=O)[C@H](C)C[C@H](C)/C=C/C=C/C=C/1C (stereo partly specified) | 78%

Lookup: I'd like to know its residual activity. The compound in question is COc1ccc2c(c1)=NC1=C(C)NCCC=21
Found: 80%

Lookup: I'd like to know its residual activity. The compound in question is CC(C)(N)c1ccc(-c2nc3ccccc3nc2-c2ccccc2)cc1
Found: 79%

Lookup: I'd like to know its residual activity. The compound in question is COC[C@H]1OC(=O)c2coc3c2[C@@]1(C)C1=C(C3=O)[C@@H]2CCC(=O)[C@@]2(C)C[C@H]1OC(C)=O
Found: 64%

* * *

target: UniProt O75116; experiment: radiometric filter-binding kinase assay; conditions: compound 1.0 µM; ATP 20 µM
Sequence (O75116 whole entry, looked up): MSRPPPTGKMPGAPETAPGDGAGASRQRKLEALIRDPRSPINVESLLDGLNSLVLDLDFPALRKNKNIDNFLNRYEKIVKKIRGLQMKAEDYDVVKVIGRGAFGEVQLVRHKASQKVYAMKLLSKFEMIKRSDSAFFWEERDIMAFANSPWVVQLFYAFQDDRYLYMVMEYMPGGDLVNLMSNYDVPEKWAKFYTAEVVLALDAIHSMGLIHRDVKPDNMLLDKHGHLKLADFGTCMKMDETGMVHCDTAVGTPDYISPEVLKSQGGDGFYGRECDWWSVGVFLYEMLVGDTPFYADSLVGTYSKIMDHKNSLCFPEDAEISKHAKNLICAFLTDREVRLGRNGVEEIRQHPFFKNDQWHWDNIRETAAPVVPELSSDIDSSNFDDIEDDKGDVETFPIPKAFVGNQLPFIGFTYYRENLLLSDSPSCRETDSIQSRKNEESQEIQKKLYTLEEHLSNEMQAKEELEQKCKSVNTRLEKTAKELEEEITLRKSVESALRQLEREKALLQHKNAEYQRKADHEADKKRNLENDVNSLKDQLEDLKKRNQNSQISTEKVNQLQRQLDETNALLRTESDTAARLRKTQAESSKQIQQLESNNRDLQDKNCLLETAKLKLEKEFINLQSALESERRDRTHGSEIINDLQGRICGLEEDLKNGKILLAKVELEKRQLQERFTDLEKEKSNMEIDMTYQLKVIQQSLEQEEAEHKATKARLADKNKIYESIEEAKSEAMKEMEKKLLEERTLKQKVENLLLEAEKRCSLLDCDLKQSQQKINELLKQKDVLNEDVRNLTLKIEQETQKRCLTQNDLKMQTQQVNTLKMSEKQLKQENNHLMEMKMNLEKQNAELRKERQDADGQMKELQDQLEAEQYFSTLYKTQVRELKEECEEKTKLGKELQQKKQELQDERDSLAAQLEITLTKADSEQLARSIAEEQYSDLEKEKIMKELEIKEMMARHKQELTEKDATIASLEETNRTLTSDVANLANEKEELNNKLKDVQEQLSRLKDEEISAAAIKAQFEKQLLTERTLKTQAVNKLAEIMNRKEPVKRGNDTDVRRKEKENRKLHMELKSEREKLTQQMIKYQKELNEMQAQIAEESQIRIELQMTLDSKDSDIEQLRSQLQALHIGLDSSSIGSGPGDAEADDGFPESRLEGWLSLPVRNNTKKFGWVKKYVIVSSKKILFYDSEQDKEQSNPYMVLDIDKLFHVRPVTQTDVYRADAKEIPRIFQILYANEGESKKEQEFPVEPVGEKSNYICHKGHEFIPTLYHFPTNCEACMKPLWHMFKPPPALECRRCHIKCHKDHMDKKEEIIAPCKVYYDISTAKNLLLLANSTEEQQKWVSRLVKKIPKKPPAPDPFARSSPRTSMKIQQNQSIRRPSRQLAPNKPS
Please use true (1) whenever residual activity is not below 80%, and false (0) whenever it is.

Use these answered entries as a reference point.
molecule | label_value
O=S(=O)(NCCNC/C=C/c1ccc(Br)cc1)c1cccc2cnccc12 | false (0)
COC[C@H]1OC(=O)c2coc3c2[C@@]1(C)C1=C(C3=O)[C@@H]2CCC(=O)[C@@]2(C)C[C@H]1OC(C)=O | true (1)

Lookup: Entry CO[C@H]1CC2CC[C@@H](C)[C@@](O)(O2)C(=O)C(=O)N2CCCC[C@H]2C(=O)OC([C@H](C)C[C@@H]2CC[C@@H](O)[C@H](OC)C2)CC(=O)[C@H](C)/C=C(\C)[C@@H](O)[C@@H](OC)C(=O)[C@H](C)C[C@H](C)/C=C/C=C/C=C/1C (stereo not given in full) : is its residual activity no less than 80%?
Found: true (1)

Lookup: Entry O=C1c2ccccc2-c2n[nH]c3cccc1c23 : is its residual activity no less than 80%?
Found: true (1)
